Where do these numbers come from? They come from ChEMBL document CHEMBL2434822.

- Tested System: Epidermal growth factor receptor (Homo sapiens, UniProt P00533, L858R)
- Sequence (P00533 25-1210 L858R limits assumed): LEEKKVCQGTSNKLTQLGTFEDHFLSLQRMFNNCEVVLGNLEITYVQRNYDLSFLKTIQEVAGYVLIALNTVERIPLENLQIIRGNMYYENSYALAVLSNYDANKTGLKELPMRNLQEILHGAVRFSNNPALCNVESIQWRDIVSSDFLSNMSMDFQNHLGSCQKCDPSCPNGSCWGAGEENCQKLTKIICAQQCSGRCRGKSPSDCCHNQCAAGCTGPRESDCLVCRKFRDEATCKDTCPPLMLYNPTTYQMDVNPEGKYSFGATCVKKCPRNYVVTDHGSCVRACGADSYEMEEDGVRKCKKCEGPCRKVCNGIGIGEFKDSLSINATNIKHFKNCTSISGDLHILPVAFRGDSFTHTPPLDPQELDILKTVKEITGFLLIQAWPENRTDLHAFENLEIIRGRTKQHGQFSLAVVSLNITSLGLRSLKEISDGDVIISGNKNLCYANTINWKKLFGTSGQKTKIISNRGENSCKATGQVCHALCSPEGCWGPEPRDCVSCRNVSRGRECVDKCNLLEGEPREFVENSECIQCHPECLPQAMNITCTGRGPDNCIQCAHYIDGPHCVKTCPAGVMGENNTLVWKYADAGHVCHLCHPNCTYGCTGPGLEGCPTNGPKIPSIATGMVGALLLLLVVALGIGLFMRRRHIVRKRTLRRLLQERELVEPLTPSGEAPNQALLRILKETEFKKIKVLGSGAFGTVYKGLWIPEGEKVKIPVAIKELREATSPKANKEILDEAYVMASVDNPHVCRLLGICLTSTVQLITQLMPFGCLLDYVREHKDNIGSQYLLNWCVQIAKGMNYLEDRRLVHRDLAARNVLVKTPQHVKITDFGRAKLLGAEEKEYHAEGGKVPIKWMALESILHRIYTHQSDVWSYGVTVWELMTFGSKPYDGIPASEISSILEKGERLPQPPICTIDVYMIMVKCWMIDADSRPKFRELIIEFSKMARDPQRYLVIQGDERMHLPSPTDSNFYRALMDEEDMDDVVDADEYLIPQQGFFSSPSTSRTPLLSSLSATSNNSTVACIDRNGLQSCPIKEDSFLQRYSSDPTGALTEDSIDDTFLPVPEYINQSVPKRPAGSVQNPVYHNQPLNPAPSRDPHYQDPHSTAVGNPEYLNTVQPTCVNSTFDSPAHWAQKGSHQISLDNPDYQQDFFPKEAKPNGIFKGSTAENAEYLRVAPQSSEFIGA
- Run Description: Inhibition of EGFR L858R mutant (unknown origin) using Tyr 4 peptide as substrate after 1.5 hrs by FRET-based Z'-LYTE assay
- Assay type: protein assay
- Reported Conditions: read-out: IC50
Property Measured: log10(IC50) (log10 of the value in nM)

INSERT INTO results (compound_string, property_measured, assay_value) VALUES
  ('C=CC(=O)Nc1cccc(-n2c(=O)cnc3cnc(Nc4ccc(N5CCN(C)CC5)cc4)nc32)c1', 'log10(IC50)', 0.12),
  ('C=CC(=O)Nc1cccc(-n2c(=O)cnc3cnc(Nc4ccc(C(N)=O)cc4)nc32)c1', 'log10(IC50)', 1.07),
  ('C=CC(=O)Nc1cccc(-n2c(=O)cnc3cnc(Nc4ccc(N5CCN(C)CC5)cc4OC)nc32)c1', 'log10(IC50)', 0.41),
  ('C=CC(=O)Nc1ccc(-n2c(=O)c(C)nc3cnc(Nc4ccc(OC)cc4)nc32)cc1', 'log10(IC50)', 3.86),
  ('C=CC(=O)Nc1ccc(-n2c(=O)cnc3cnc(Nc4ccc(Cl)cc4)nc32)cc1', 'log10(IC50)', 2.70),
  ('C=CC(=O)Nc1ccc(-n2c(=O)cnc3cnc(Nc4ccc(N5CCOCC5)cc4)nc32)cc1', 'log10(IC50)', 3.94),
  ('C=CC(=O)Nc1ccc(-n2c(=O)cnc3cnc(Nc4ccc(OC)cc4)nc32)cc1', 'log10(IC50)', 4.37),
  ('COc1ccc(Nc2ncc3ncc(=O)n(-c4ccc(NC(=O)/C=C/CN(C)C)cc4)c3n2)cc1', 'log10(IC50)', 1.88),
  ('C=CC(=O)Nc1ccc(Nc2ncc3ncc(=O)n(-c4ccc(OC)cc4)c3n2)cc1', 'log10(IC50)', 4.85),
  ('COc1ccc(Nc2ncc3ncc(=O)n(-c4cccc(N)c4)c3n2)cc1', 'log10(IC50)', 4.75),
  ('C=CC(=O)Nc1cccc(-n2c(=O)cnc3cnc(Nc4ccc(N(CC)CC)cc4)nc32)c1', 'log10(IC50)', 1.15),
  ('C=CC(=O)Nc1cccc(-n2c(=O)cnc3cnc(Nc4ccc(N5CCCCC5)cc4)nc32)c1', 'log10(IC50)', 1.17),
  ('C=CC(=O)Nc1cccc(-n2c(=O)cnc3cnc(Nc4ccc(OC)cc4)nc32)c1', 'log10(IC50)', 1.17),
  ('C=CC(=O)Nc1cccc(-n2c(=O)cnc3cnc(Nc4ccc(N5CCOCC5)cc4)nc32)c1', 'log10(IC50)', 0.86),
  ('COc1ccc(-n2c(=O)cnc3cnc(Nc4ccc(N)cc4)nc32)cc1', 'log10(IC50)', 3.93),
  ('C=CC(=O)Nc1cccc(-n2c(=O)cnc3cnc(Nc4ccc(N5CCCC5)cc4)nc32)c1', 'log10(IC50)', 1.11),
  ('C=CC(=O)Nc1ccc(-n2c(=O)cnc3cnc(Nc4ccc(N5CCN(C)CC5)cc4)nc32)cc1', 'log10(IC50)', 3.18),
  ('C=CC(=O)Nc1ccc(-n2c(=O)cnc3cnc(Nc4ccc(N5CCN(C)CC5)cc4OC)nc32)cc1', 'log10(IC50)', 2.70),
  ('C=CC(=O)Nc1cccc(-n2c(=O)cnc3cnc(Nc4ccc(NC(C)=O)cc4)nc32)c1', 'log10(IC50)', 1.15);
